Test system: MS2 coat protein
Test: apparent KD of MS2 coat protein; designed switch direction (-1 OFF switch, 1 ON switch): -1; higher = weaker reporter binding
Conditions: Eterna round: R95; input ligand: FMN 200 uM
MEASUREMENT_KIND: apparent KD of MS2 coat protein (nM)
Answers are plain numbers, in nM.

Consider the following illustrative entries.
- RECORD_SEQUENCE: "AGAUGUAGAUACCGAUCCUACAUGAGGAUCACCCAUGUAGCUAGACGUGCUCGCGUUGCUCGUCAGACUACCAGUAG [salish99_TOv1_r3_088] (puzzle: Sensor v3, turn-off variant 1)"
  TESTED_ON: "MS2 coat protein"
  apparent KD of MS2 coat protein, nM: 279
- RECORD_SEQUENCE: "GCAAGCGACUAGGCUCGUCUUAUAUUGAAAAGAUUGAAAACAUGAGGAUCACCCAUGUAUGUGGGAGAGUUGAAGUG [JR_SV3TOV2_Sub011] (puzzle: Sensor v3, turn-off variant 2)"
  TESTED_ON: "MS2 coat protein"
  apparent KD of MS2 coat protein, nM: 286

Now for a further sequence.
stdin: Query: apparent KD of MS2 coat protein; subject: CUUAGACAUGAGGAUCACCCAUGUGAGGAUAUGAUGCGAAUAAAGAAAGAAGAAAGCAUCAGAAGGCACAUAUG [Fiskers Ex 1 - 1] (puzzle: Exclusion 1)
stdout: 111

###

System: K4 kissing-loop RNA reporter;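 note: bound reporter read as fluorescence of individual clusters on recovered sequencing chips by microscopy, with normalized cluster intensities fitted with a binding model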
Experiment: apparent KD of K4 kissing-loop reporter; higher = weaker reporter binding
Conditions: Eterna round: R107; input ligand: tryptophan 2.4 mM
MEASUREMENT_KIND: apparent KD of K4 kissing-loop reporter (nM)
Answers are plain numbers, in nM.

Consider the following illustrative entries.
- RECORD_SEQUENCE: "UUGGAAAUCAGAAGGAGCGUCUAAAAUAAGAGAACCAGUGAUGUUGGUUUUAUUUAAUGAAGACAGGUAGGUCGCUGAAUUUUUA [Same State Arginie B GF 19]"
  UOM: "nM"
  apparent KD of K4 kissing-loop reporter: 94.9
- RECORD_SEQUENCE: "GCGAUUCAGUGAUGUUGGAAAUACAGGGAUACCAGCCGAGAAUAAGGCCCUUGGCAGCUUAAUAGGAAAGAACUAAGUAAGACGC [Theophylline A Same State; Euphoria Solution 2]"
  UOM: "nM"
  apparent KD of K4 kissing-loop reporter: 402
- RECORD_SEQUENCE: "GCAGUGAUGUUGCGCGGGUACGGUAGAGUACGAGGACCGGUACGGCCGCCACUCGUACGGAACUGGCUAAUUUAUGGAAUGGUGA [IV]"
  UOM: "nM"
  apparent KD of K4 kissing-loop reporter: 213
- RECORD_SEQUENCE: "UGACUGGAUGGAAGGAGCGCUAAACUCCUAGUGAUGUUAGGGAUACGAGGCAAAGCCUCGAGGCAGGUAGGUCGCCAUCUAGUCU [FiskerMod 24 - Jieux - Same State - Arginine B]"
  UOM: "nM"
  apparent KD of K4 kissing-loop reporter: 136
- RECORD_SEQUENCE: "CAUAGGAAACUAUGUUCCUCUCUUACUGAAGGAGCGCGUGAAAACGCAGGUAGGUCGCAGGAUUUGAGAGUGAUGUUCUCAUUAA [Ex Arginine A K4 15]"
  UOM: "nM"
  apparent KD of K4 kissing-loop reporter: 171
- RECORD_SEQUENCE: "GGUAUGGAAGCAACAUCACAAGCCGUACCACGAGGACCGGUACGGCCGCCACUCGAUAACUUGCAGUGAUGUUGCAAGUAAGAAU [(T)''-(K)'-(T)'-(T1)-(T2)-(K1)-(K2)_Design6]"
  UOM: "nM"
  apparent KD of K4 kissing-loop reporter: 68.6
- RECORD_SEQUENCE: "AAAUAAUAAAUGCAGCCAGUGAUGUUGGAAGGAGCGUGCGAAAGCACAGGUAGGUCGCCAACCAAAGCUGGAAACAGCAACUGCA [#SwitchBubble 3 #K4Early]"
  UOM: "nM"
  apparent KD of K4 kissing-loop reporter: 99.1
- RECORD_SEQUENCE: "AUAUCGGUUGAGAGUGAUGUUCCUUGUGUUCGAGGACCGGUACGGCCGCCACUCGGGUAGAAAAUAAAAGAUGUGUUUGAUUUUU [BDazzled - #14 SS Tryptophan A]"
  UOM: "nM"
  apparent KD of K4 kissing-loop reporter: 221
- RECORD_SEQUENCE: "AUGUCGUUAUAGUGAGUGAUGUUCACUGUGCGAGGACCGGUACGGCCGCCACUCGAGAGUGGUGGACACUGAGUCACUCUGACAC [Tryp A Ex t2]"
  UOM: "nM"
  apparent KD of K4 kissing-loop reporter: 283
- RECORD_SEQUENCE: "AUUUAUUCGUACUACUAGUGAUGUUAGUAACGAGGACCGGUACGGCCGCCACUCGAUUUGGCGAUUUUGUAUUUUUUAUUCUAUA [JR_SSTryptoA_Sub011]"
  UOM: "nM"
  apparent KD of K4 kissing-loop reporter: 192

For the 6 sequences below, give their apparent KD of K4 kissing-loop reporter values.
1. UUCAUCGUGGUUCACGGGUGGUAUGAAACGCGAGGACCGGUACGGCCGCCACUCGGUUCCGCUUGUUGAGUGAUGUUCAAUAUUU
2. UGUAUGUGAUUUGAUACCAGACCAGCUGGUGGAAUCUGAGUGAUGUUCAGGUAGGUUUGGGUCCCUUGGCAGCAAAUCGCAUACU [KL-SSTheoB27]
3. UGUUUUUACUGAAGGAGCGGCAAUUGAUACGUAGAUAUAGUGAUGUUAUAUAAGAUAGAGAGCCAGGUAGGUCGCAGAGUGUUUC [ExArgB.aA]
4. UAUACUAGACAAGAGAGAAUUCUCUCAAGAGAGGAUAUCCGAAUUCGGAGAAGGCUCGCUAAGUGAUGUUUGGAAUAGUCUAGAA [AK4 SS FMN A]
5. GGAUCCACCAGUGAUGUUGGAGAAAACUCCAAGGAUAUGACGAAAGUCAGAAGGUGGUAGACUGGGCAAAGUCCGGUCGGAUCCA [FmnA10 G66]
6. UGACUGGACUGAAGGAGCGCGAAAACUCCUAGUGAUGUUAGGAAAACGAGACAAAGUCUCGCGCAGGUAGGUCGCAGUCUAGUCU [ArgBS 20 #SwitchBubble #StaticStem]

stdout:
[257, 170, 172, 384, 355, 113]

For the 7 sequences below, give their apparent KD of K4 kissing-loop reporter values.
1. AAGUGUCAUUAGACACAGACUACAAUAAACUAGGAUAUGCUGAUAAGCAGAAGGAGUGAUGUUCCUUUCAAGUAGUCAAUUAAAU [FmnAX 20 Mat Inspired #SwitchBubble #StaticStem #K4Late]
2. GCAGACACGCAGUGAUGUUGCGAAACGGAAGGAGCGCGUGAAAACGCAGGUAGGUCGCCGACACAUUAAUUAUAAUUUUGUUUGC [Arginine A K4 15]
3. ACUACGAAGACGGCCGCCACUGAUAUUCGUAGAUCCAUCAUUGCAUGAGUGAUGUUCAUGUAUAUCAGGACCGGGUCAAGAUGGU [KL-XTryp-B18 #analogue]
4. AAUACGAAGCAGUGAUGUUGCUUAUGAGAAGGAGCGCACGAAAGUGCAGGUAGGUCGCUCAGCCAUGUGGACGAAAACGUCCACA [whbob_SS_Arginine_A_sa109]
5. GAAUAAUAACAUGAGUGAUGUUCAUGUAAACGAGGACCGGUACGGCCGCCACUCGUUUCUCAUGUAAGCCGUACCAAUAACAAUA [KL-XTryp-A5 #analogue]
6. UGUAUGGACUGAAGGAGCGGUAGAUAAACUGAGUGAUGUUCGGCAAAUAAAGGCGCAAGCCACCAGGUAGGUCGCAGUCCAUACU [KL-SSArg B1]
7. GGCCACGGGCGAGGAUAUGGGCAUGAUUCAUCCUGGAGUGAUGUUCCAGGUCCUACGUUUCUAGCACCAGAAGGCGUUUGUUGCU [Enistein]

stdout:
1. 97.6
2. 200
3. 213
4. 80.5
5. 237
6. 205
7. 165
